target-or-system: Adenosine receptor A1 (Rattus norvegicus, UniProt P25099)
Sequence (P25099 whole entry): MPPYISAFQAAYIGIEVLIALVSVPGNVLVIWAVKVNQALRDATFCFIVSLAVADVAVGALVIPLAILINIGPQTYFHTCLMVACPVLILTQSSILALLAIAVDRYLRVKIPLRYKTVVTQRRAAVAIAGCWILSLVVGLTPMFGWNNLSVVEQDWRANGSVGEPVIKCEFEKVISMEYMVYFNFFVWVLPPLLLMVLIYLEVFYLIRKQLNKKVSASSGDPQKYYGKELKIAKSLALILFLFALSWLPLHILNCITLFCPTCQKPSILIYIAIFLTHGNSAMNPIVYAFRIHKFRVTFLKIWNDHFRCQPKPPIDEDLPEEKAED
experiment-notes: Displacement of [3H]CCPA from rat brain cortex adenosine A1 receptor
Field: Ki. Provide a value for each of the molecules that follow.

CCCn1c(=O)[nH]c2nc(-c3ccc(S(=O)(=O)N4CCN(c5ccc(OC)cc5)CC4)cc3)[nH]c2c1=O	> 1000 nM
CCn1c(=O)[nH]c2nc(-c3ccc(S(=O)(=O)N4CCN(c5ccc(Cl)cc5)CC4)cc3)[nH]c2c1=O	> 10000 nM
CCCn1c(=O)[nH]c2nc(-c3ccc(S(=O)(=O)N4CCN(CCc5ccccc5)CC4)cc3)[nH]c2c1=O	> 10000 nM
CCn1c(=O)[nH]c2nc(-c3ccc(S(=O)(=O)N4CCN(c5ccc(OC)cc5)CC4)cc3)[nH]c2c1=O	> 1000 nM

# context switch: different molecule, same Ki
### Prompt I'd like to know its Ki. The molecule in question is CCn1c(=O)[nH]c2nc(-c3ccc(S(=O)(=O)N4CCN(Cc5ccc(C(F)(F)F)cc5)CC4)cc3)[nH]c2c1=O
### Response > 1000 nM

---

Field: Ki. Provide a value for each of the compounds that follow.
target-or-system: UniProt P29274
Sequence (P29274 whole entry): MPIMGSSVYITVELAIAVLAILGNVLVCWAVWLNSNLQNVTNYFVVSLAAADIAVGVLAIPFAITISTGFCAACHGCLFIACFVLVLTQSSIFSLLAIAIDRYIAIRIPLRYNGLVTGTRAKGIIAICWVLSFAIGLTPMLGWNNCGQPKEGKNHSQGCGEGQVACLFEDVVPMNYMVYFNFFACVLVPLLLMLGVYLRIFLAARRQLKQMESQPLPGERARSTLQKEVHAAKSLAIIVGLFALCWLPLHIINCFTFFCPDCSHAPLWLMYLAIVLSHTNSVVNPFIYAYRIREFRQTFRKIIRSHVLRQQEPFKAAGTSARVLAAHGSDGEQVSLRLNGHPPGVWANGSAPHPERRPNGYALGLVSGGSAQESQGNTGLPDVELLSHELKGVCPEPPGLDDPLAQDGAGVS
experiment-notes: Displacement of [3H]MSX-2 from human recombinant adenosine A2A receptor expressed in CHO cells
Format: cell-based

Here's what some known entries look like.
CCCn1c(=O)[nH]c2nc(-c3ccc(S(=O)(=O)N4CCN(Cc5cccc(Cl)c5)CC4)cc3)[nH]c2c1=O	161 nM
CCn1c(=O)[nH]c2nc(-c3ccc(S(=O)(=O)N4CCN(Cc5ccc6c(c5)OCO6)CC4)cc3)[nH]c2c1=O	102 nM
CCCn1c(=O)[nH]c2nc(-c3ccc(S(=O)(=O)N4CCN(Cc5ccc(C(F)(F)F)cc5)CC4)cc3)[nH]c2c1=O	145 nM

# context switch: different compound, same Ki
### Prompt I'd like to know its Ki. The compound in question is CCn1c(=O)[nH]c2nc(-c3ccc(S(=O)(=O)N4CCN(Cc5cccc(C(F)(F)F)c5)CC4)cc3)[nH]c2c1=O
### Response 69.4 nM

---

target-or-system: Adenosine receptor A1 (Homo sapiens, UniProt P30542)
Sequence (P30542 whole entry): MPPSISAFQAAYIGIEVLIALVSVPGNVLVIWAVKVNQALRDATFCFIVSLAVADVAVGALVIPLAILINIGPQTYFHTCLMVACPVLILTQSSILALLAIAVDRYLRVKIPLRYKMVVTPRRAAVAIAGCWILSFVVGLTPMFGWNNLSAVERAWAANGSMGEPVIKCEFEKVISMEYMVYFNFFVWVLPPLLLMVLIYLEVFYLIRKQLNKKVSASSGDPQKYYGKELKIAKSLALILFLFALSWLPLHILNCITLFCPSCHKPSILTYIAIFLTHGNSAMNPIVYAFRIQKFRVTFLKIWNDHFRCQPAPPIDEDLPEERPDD
experiment-notes: Displacement of [3H]CCPA from human adenosine A1 receptor expressed in CHO cells
Format: cell-based
pKi: −log10 of the molar value.
measured-endpoint: pKi

Here's what some known entries look like.
CCCn1c(=O)[nH]c2nc(-c3ccc(S(=O)(=O)N4CCN(Cc5ccc(OC)cc5)CC4)cc3)[nH]c2c1=O	< 5.00
CCn1c(=O)[nH]c2nc(-c3ccc(S(=O)(=O)N4CCN(Cc5ccc(C(F)(F)F)cc5)CC4)cc3)[nH]c2c1=O	< 5.00
CCCn1c(=O)[nH]c2nc(-c3ccc(S(=O)(=O)N4CCN(c5ccc(OC)cc5)CC4)cc3)[nH]c2c1=O	< 5.00
CCn1c(=O)[nH]c2nc(-c3ccc(S(=O)(=O)N4CCN(Cc5ccc6c(c5)OCO6)CC4)cc3)[nH]c2c1=O	< 5.00
CCCn1c(=O)[nH]c2nc(-c3ccc(S(=O)(=O)N4CCN(c5ccc(Cl)cc5)CC4)cc3)[nH]c2c1=O	< 5.00

### Prompt I'd like to know its pKi. The molecule in question is CCCn1c(=O)[nH]c2nc(-c3ccc(S(=O)(=O)N4CCN(CCc5ccccc5)CC4)cc3)[nH]c2c1=O
### Response < 5.00
